Test: Free radical scavenging ability by DPPH method
Format: biochemical
Details: each component 0.5 mg/mL in methanol; DPPH 0.12 mM; 1 hour; absorbance 517 nm; average of three

Mol: COc1cc(/C=C/C(=O)O)ccc1O
Trolox μmol equivalents/mL: 0.981 Trolox μmol equivalents/mL
//
Mol: CC[C@H](CC[C@@H](C)[C@H]1CC[C@H]2[C@@H]3CC=C4C[C@@H](O)CC[C@]4(C)[C@H]3CC[C@]12C)C(C)C
Trolox μmol equivalents/mL: 0.051 Trolox μmol equivalents/mL
//
Mol: C[C@@H]1CC[C@H]2C(C)(C)[C@H]3C[C@@]12CC[C@@]3(C)O
Trolox μmol equivalents/mL: 0.104 Trolox μmol equivalents/mL
//
Mol: CCCCC/C=C\C/C=C\CCCCCCCC(=O)O
Trolox μmol equivalents/mL: 0.023 Trolox μmol equivalents/mL

====

System: MNT-1 melanoma cells
Experiment: Inhibition of melanin production in MNT-1 melanoma cells
Type: cell-based
Conditions: each component 3 μg/mL (3 ppm); 72 hours; relative to methanol negative control; average of three
Procedure: To culture MNT-1 melanoma cells, a mixture of Dulbecco's Modified Eagle's Medium (DMEM) and 10% fetal bovine serum (FBS) was used as a basal medium. MNT-1 melanoma cells were dispensed in a 6-well plate at a concentration of 1-2×10^5 cells/mL and cultured for 24 hours. […] Melanin in the pellet was dissolved by adding 100 μL of a 0.5 N sodium hydroxide solution and incubating for 12 hours, and absorbance at 450 nm was measured using a spectrophotometer to measure the total amount of melanin produced. […]
Entries and their Melanin production Inhibition rate (%) values follow.

Mol: C[C@@H]1CC[C@H]2C(C)(C)[C@H]3C[C@@]12CC[C@@]3(C)O
Melanin production Inhibition rate (%): 17.5
//
Mol: CC[C@H](CC[C@@H](C)[C@H]1CC[C@H]2[C@@H]3CC=C4C[C@@H](O)CC[C@]4(C)[C@H]3CC[C@]12C)C(C)C
Melanin production Inhibition rate (%): 1.7
//
Mol: COc1cc(/C=C/C(=O)O)ccc1O
Melanin production Inhibition rate (%): 16.3
//
Mol: CCCCC/C=C\C/C=C\CCCCCCCC(=O)O
Melanin production Inhibition rate (%): 6.7
